Give measured nuclei count for each item. Keep answers brief.
Assay: reduction of polyQ htt aggregates in cells – imaging, exon1htt(103Q)mCFP cells, high-content imaging, primary screen (AID 483);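 note: compound exposure lasted 3 days before fixation; percent of the per-plate median nuclei count of sample wells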
Details: exon1htt(103Q)mCFP cell line, aggregate imaging, at 2 µM; measured here: cell count, toxicity
Unit % implied. Number only.

Item COc1ccc(N2C(=O)CC(NC3CC3)C2=O)cc1 (stereo unspecified) has what recorded nuclei count?
108

`CC(=O)CC(=O)Nc1ccccc1NC(C)=O` ?
108

Cc1ccc(C)c(NC(=O)C2CCC(C)(C(=O)O)C2(C)C)c1 (stereo unspecified) ?
98

CCNC(=O)CC1C(=O)N(c2ccc(F)cc2)C(=O)N1CCC(C)C (stereo unspecified) ?
92.3

`CCOc1ccc(CN2CCN(c3cc(C)nc4c5c(C)cc(C)nc5nn34)CC2)cc1` ?
108

`O=C(Nc1ncnc2sc3c(c12)CCCCC3)c1ccco1` ?
85.3

Cc1ccc(N2CC(C(=O)N3CCN(C(=O)c4ccco4)CC3)CC2=O)cc1 (stereo unspecified) ?
114

`Cc1csc(NC(=O)c2cccc(S(=O)(=O)N3CCCCC3)c2)n1` ?
96.8

`CSC(=O)CC(=O)NC(=O)c1ccccc1` ?
90

`O=C(C1CCN(S(=O)(=O)c2ccc(-n3cnnn3)cc2)CC1)N1CCN(c2ccccc2)CC1` ?
76.8

COC(=O)c1[nH]c(C)c(/C(O)=C2\C(=O)C(=O)N(CCN(C)C)C2c2ccccc2OC)c1C (stereo unspecified) ?
106

* * *

Target: Muscarinic acetylcholine receptor M4 (Homo sapiens) (UniProt P08173)
Sequence (P08173 whole entry, looked up): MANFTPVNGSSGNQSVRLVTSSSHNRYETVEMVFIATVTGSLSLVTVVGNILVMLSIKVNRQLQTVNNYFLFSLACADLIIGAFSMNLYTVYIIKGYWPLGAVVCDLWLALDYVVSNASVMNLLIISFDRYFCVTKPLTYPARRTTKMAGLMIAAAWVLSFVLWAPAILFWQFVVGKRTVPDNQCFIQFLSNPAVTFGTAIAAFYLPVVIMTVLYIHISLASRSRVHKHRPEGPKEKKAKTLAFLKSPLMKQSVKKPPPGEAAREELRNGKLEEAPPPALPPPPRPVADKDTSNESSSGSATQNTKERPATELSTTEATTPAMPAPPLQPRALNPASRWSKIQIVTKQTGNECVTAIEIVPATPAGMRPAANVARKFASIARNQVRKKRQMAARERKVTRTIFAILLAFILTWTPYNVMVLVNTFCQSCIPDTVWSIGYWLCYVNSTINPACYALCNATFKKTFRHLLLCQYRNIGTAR
Assay: M4-linked GIRK flux change, two-sided – cell-based, HEK293 M4/GIRK, thallium flux, BTC-AM, M4 allosteric agonist project, primary screen (AID 625);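 note: thallium influx through GIRK channels coupled to M4 in HEK293 cells with BTC-AM dye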
Details: at 10 µM, actives lie on both sides
Give measured fluorescence slope for each item. Keep answers brief.
Form rule: numeric answer, no unit written next to it.

Item `Nc1nonc1NC(=O)CSc1nc2ccccc2s1` has what recorded fluorescence slope?
0.00565

`CCCCN(CCCNC(=O)C1CCN(S(=O)(=O)CC)CC1)c1ccccc1` ?
0.00466

`Cc1ccc(S(=O)(=O)N(C)Cc2cc3ccccc3[nH]c2=O)cc1` ?
0.00517

`Cc1onc(-c2c(Cl)cccc2Cl)c1C(=O)NCCCN1CCOCC1` ?
0.00479

`COC(=O)Cn1cnc2c(nnn2-c2ccc(C)cc2)c1=O` ?
0.00635

COC(=O)c1ccc(N2C(=O)CC(N3CCN(C(=O)c4ccco4)CC3)C2=O)cc1 (stereo not given) ?
0.00534

`CCOC(=O)N1CCN(CC(=O)Nc2c(C(=O)OC)[nH]c3cccc(Cl)c23)CC1` ?
0.00534

`CN(C)S(=O)(=O)c1ccc(S(=O)(=O)Nc2ccc3c(c2)oc2ccccc23)cc1` ?
0.00569

COCCn1nnnc1C(c1cc2cc(C)cc(C)c2[nH]c1=O)N1CCN(c2ccccc2F)CC1 (stereo not given) ?
0.00818

`N#Cc1cc2sc3nnc(-c4ccncc4)n3c2cc1C#N` ?
0.0043

* * *

Test: blockers of RIG-like receptor reporter activation – cell-based, Sendai virus stimulus, luciferase, 10K MLSCN set, TLR/RLR signaling modifier project, primary screen (AID 602276);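 note: firefly luciferase from ISG56 promoter only with Renilla not read in this screen; 0% = Sendai virus plus DMSO and 100% = medium plus DMSO without virus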
Conditions: HEK293 RL24 IRF3 luciferase reporter, at 10 µM, stronger effect = higher value
assayReadout: inhibition (%)
Unit % implied. Number only.

Item CCCSC1=C(C#N)C(c2ccccc2OCC)CC(=O)N1 (stereo unspecified) has what recorded inhibition?
17.2

`COC(=O)c1oc2ccc(Br)cc2c1NC(=O)CN1CCN(C)CC1` ?
1.64

`COc1ccc(CNc2nc(SCC(=O)NCc3ccco3)nc3ccccc23)cc1` ?
-0.825

CCOc1ccc(N(C)S(=O)(=O)c2ccc3[nH]cc(C(=O)NCC4CCCO4)c(=O)c3c2)cc1 (stereo unspecified) ?
1.36

`CC(C)Oc1cccc(-c2cc(C(=O)N3CCN(S(C)(=O)=O)CC3)c3ccccc3n2)c1` ?
-23

`CC(C)(C)c1cc(C(=S)N2CCN(CCO)CC2)cc(C(C)(C)C)c1O` ?
24.4

CCOc1cc(C2C(C(=O)OC(C)C)=C(C)N=C3SCCC(=O)N32)ccc1OC(C)=O (stereo unspecified) ?
11.7

`O=C(NCCN1CCOCC1)c1csc2c1CCCC2` ?
12.1

`O=C(OCc1cc2ccccc2[nH]c1=O)c1ccncc1` ?
19.9

`Cc1ccc(OCC(=O)NCCN2CCCC2)cc1` ?
15.6

`CCOC(=O)N1CCN(c2cc3[nH]c(=S)[nH]c3cc2F)CC1` ?
17.8

Provenance of the data: PubChem BioAssay
